Target: Mcl-1 protein (UniProtKB primary accession number: Q07820) (Homo sapiens, UniProt Q07820)
Sequence (Q07820 whole entry): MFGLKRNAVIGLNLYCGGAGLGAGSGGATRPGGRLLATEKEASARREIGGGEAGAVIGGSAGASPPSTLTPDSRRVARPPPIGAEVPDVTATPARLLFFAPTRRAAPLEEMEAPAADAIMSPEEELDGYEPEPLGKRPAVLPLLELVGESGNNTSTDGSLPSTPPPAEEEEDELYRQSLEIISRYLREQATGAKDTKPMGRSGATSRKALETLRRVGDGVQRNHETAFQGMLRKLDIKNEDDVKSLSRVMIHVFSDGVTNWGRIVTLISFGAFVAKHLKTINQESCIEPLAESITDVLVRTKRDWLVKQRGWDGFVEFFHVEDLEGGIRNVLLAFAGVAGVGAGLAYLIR
Assay: Inhibition of Mcl-1 by fluorescence polarisation, Method 1
Format: binding
Conditions: fluorescence polarisation test; Method 2 values are underlined in the patent (underlining not visible here); read-out: IC50 (M) Mcl-1 FP
Overview of recorded IC50 for various molecules
Numeric only. Scale: M

Consider the worked cases shown below.
{"columns": ["molecule", "value_kind", "measured_result"],
 "data": [
  ["Cc1c(-c2c(-c3ccco3)sc3ncnc(OC(Cc4ccccc4OCc4ccnc(Cl)n4)C(=O)O)c23)ccc(OCCN2CCN(C)CC2)c1Cl (stereo not drawn)", "IC50", "4e-09"],
  ["COc1cccc(COc2ccccc2CC(Oc2ncnc3sc(-c4ccco4)c(-c4ccc(OCCN5CCN(C)CC5)c(Cl)c4C)c23)C(=O)O)n1 (stereo not drawn)", "IC50", "5.9e-09"]
]}

Using the record for Cc1c(-c2c(-c3ccco3)sc3ncnc(OC(Cc4ccccc4OCc4ccnc(N(C)C)n4)C(=O)O)c23)ccc(OCCN2CCN(C)CC2)c1Cl (stereo not drawn) , state its measured IC50. 6.3e-09

Using the record for CCCc1nccc(COc2ccccc2CC(Oc2ncnc3sc(-c4ccc(F)cc4)c(-c4ccc(OCCN5CCN(C)CC5)c(Cl)c4C)c23)C(=O)O)n1 (stereo not drawn) , state its measured IC50. 2.9e-09

Using the record for Cc1c(-c2c(-c3ccc(F)cc3)sc3ncnc(OC(Cc4ccccc4OCc4ccccn4)C(=O)O)c23)ccc(OCCN2CCN(C)CC2)c1Cl (stereo not drawn) , state its measured IC50. 1.3e-08

Using the record for Cc1c(-c2c(-c3ccc(F)cc3)sc3ncnc(OC(Cc4ccccc4OCc4ccnn4C4CCCCC4)C(=O)O)c23)ccc(OCCN2CCN(C)CC2)c1Cl (stereo not drawn) , state its measured IC50. 8.3e-09

----------
System: H929 multiple myeloma tumour line
Assay: In vitro cytotoxicity, Microculture Tetrazolium Assay
Type: cell-based
Conditions: Homo sapiens, NCI-H929, 48 h, H929 cells, 48 hours exposure, MTT; read-out: IC50 (μM) MTT H929
Overview of recorded IC50 for various molecules
Numeric only. Scale: µM

{"columns": ["molecule", "target_system", "IC50 [µM]"],
 "data": [
  ["COc1ccc(-c2sc3ncnc(OC(Cc4ccccc4OCc4ccnn4CC(F)(F)F)C(=O)O)c3c2-c2ccc(OCCN3CCN(C)CC3)c(Cl)c2C)cn1 (stereo not drawn) [Example 696]", "H929 multiple myeloma tumour line", 0.05],
  ["COCCOCCn1nccc1COc1ccccc1CC(Oc1ncnc2sc(-c3ccc(F)cc3)c(-c3ccc(OCCN4CCN(C)CC4)c(Cl)c3C)c12)C(=O)O (stereo not drawn) [Example 90]", "H929 multiple myeloma tumour line", 0.058]
]}

Using the record for Cc1c(-c2c(-c3ccc(F)cc3)sc3ncnc(OC(Cc4ccccc4OCc4ccnn4C4CCCC4)C(=O)O)c23)ccc(OCCN2CCN(C)CC2)c1Cl (stereo not drawn) [Example 72] , state its measured IC50. 0.04

----------
Biological target: Mcl-1 protein (UniProtKB primary accession number: Q07820) (Homo sapiens, UniProt Q07820)
Assay: Inhibition of Mcl-1 by fluorescence polarisation, Method 1
Assay type: binding
Conditions: fluorescence polarisation; Method 1, or Method 2; read-out: IC50 (M) Mcl-1 FP
value_kind: IC50 (M)
Numeric only. Scale: M

{"columns": ["molecule", "IC50, M"],
 "data": [
  ["COc1ccccc1-c1nccc(COc2ccccc2CC(Oc2ncnc3sc(-c4ccc(OCc5ccn(C)n5)cc4)c(-c4ccc(OCCN5CCN(C)CC5)c(Cl)c4C)c23)C(=O)O)n1 (stereo not drawn) [Example 776]", "9.48e-10"]
]}

Using the record for CCOC(=O)C(Cc1ccccc1OC)Oc1ncnc2sc(-c3ccco3)c(-c3ccc(OCCN4CCN(C)CC4)c(Cl)c3C)c12 (stereo not drawn) [Example 627] , state its measured IC50. 4.9e-07

Using the record for COc1nccc(COc2ccccc2CC(Oc2ncnc3sc(-c4ccco4)c(-c4ccc(OCCN5CCN(C(C)C)CC5)c(Cl)c4C)c23)C(=O)O)n1 (stereo not drawn) [Example 672] , state its measured IC50. 4.3e-09

All values here come from patent US9670227B2.
